experiment: NCI Yeast Anticancer Drug Screen. Data for the bub3 strain (AID 167); conditions: S. cerevisiae bub3 mutant strain, at 50.0 µM, stronger effect = higher value
About 79,000 compounds went through this panel and 15% of them were active in at least one assay; those are over-represented in the sample as a whole.
The entries below are paired with their reported growth inhibition.
result.type: growth inhibition (%)

> print(dat)
                                    compound        result.type  quantitative.readout
 1           O=C(Nc1cc(Cl)ccc1Cl)C(Cl)(Cl)Cl  growth inhibition                  28.1
 2          CCC[CH2][Sn]1([CH2]CCC)[O]CC[S]1  growth inhibition                  96.1
 3                   Cc1cc(C)c(O)c(C)c1.[Hg]  growth inhibition                  99.3
 4  N#Cc1cc(N(CCCl)CCCl)c([N+](=O)[O-])cc1[N+](=O)[O-]  growth inhibition                  84.9
 5           CC1(C)CCC(C)(C)c2cc(Cl)c(O)cc21  growth inhibition                  98.8
 6  C[CH2][Sn]([CH2]C)([S]CCS(=O)(=O)O)[S]CCS(=O)(=O)O (tested in a mixture with another compound)  growth inhibition                  17.6
 7       C/C(=C\c1ccc2c(c1)OCO2)[N+](=O)[O-]  growth inhibition                    51
 8  C1CN([PH+](N2CC2)N2CC2)CCO1.C1CN([PH+](N2CC2)N2CC2)CCO1.[I][Pt][I]  growth inhibition                  96.5
 9  CC#N.FC(F)(F)C#CC(F)(F)F.FC(F)(F)C#CC(F)(F)F.FC(F)(F)C#CC(F)(F)F.[W]  growth inhibition                  99.6
10                       COc1ccc(OC)c(C=O)c1  growth inhibition                   -35
11  Nc1nc(N)c2c(Cl)c(CNc3ccc(C(=O)NC(CC(=O)O)C(=O)O)cc3)ccc2n1 (stereo not given)  growth inhibition                  43.5
12  CCCCN1C(=O)C2C(C1=O)C1(Cl)C(Cl)=C(Cl)C2(Cl)C1(Cl)Cl (stereo not given)  growth inhibition                  76.5
13  Cc1ccc(P(=O)(c2ccc(C)cc2)c2ccc(C)cc2)cc1.Cc1ccc(P(=O)(c2ccc(C)cc2)c2ccc(C)cc2)cc1.[Cl][Sn]([Cl])([Cl])[Cl]  growth inhibition                  76.2
14  Cc1ccc(S(=O)(=O)OC2CCC3C4CC=C5CC(SC(=N)N)CCC5(C)C4CCC23C)cc1 (stereo not given)  growth inhibition                  26.1
15  ClCCN(CCCl)c1ccc(CN2CCCN(Cc3ccc(N(CCCl)CCCl)cc3Cl)C2c2ccncc2)c(Cl)c1  growth inhibition                   1.9
16  C=CCOc1cc2c(ccc1=O)-c1c(cc(OC)c(OC)c1OC)CCC2NC(C)=O (stereo not given)  growth inhibition                  96.8
17  O=C(N/N=C/c1cc(Cl)cc(Cl)c1[O-])c1ccccc1O.O=C(N/N=C/c1cc(Cl)cc(Cl)c1[O-])c1ccccc1O.[Mn+2]  growth inhibition                  90.8
18  CC(=O)OC1CCC2(C)C(CCC3C4=CCC(C5=CC(=O)OC5)C4(C)CCC32)C1 (stereo not given)  growth inhibition                  67.5
19                  Cc1cccc2cc3ccccc3c[n+]12  growth inhibition                  54.2
20  C=CCCCCCCCCC(=O)O (tested in a mixture with another compound)  growth inhibition                  40.4

###

experiment: NCI Yeast Anticancer Drug Screen. Data for the cln2 rad14 strain (AID 165);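 note: 0% = growth equal to vehicle treated cultures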; details: S. cerevisiae cln2 rad14 strain, at 50.0 µM, stronger effect = higher value
Compounds without any hit were thinned out: in the full panel of roughly 79,000, 15% have a hit.
The entries below are paired with their reported growth inhibition.
result.type: growth inhibition (%)

> print(dat)
                                    compound  measurement.units  quantitative.readout
 1   CC(C)COP(=O)(OCC(C)C)C(=O)Nc1ccc(Cl)cc1                  %                  22.6
 2  CCCC[CH2][Pb]([CH2]CCCC)([CH2]CCCC)[O]C(C)=O                  %                    98
 3  CCc1cc2c(cc1-c1csc(C/C(N)=N/O)n1)C(C)(C)CCC2(C)C                  %                  89.7
 4             c1ccc(N=c2nc(N3CCOCC3)ss2)cc1                  %                  93.4
 5  CCCCN(CCCC)CCc1ccc(OC(=O)c2ccc(N)cc2)cc1                  %                  90.2
 6    O=C(NNC(=O)OCC(Cl)(Cl)Cl)OCC(Cl)(Cl)Cl                  %                 -12.9
 7  C/C(=N\Nc1ccccn1)C1CC[N-]C2C(O)CCCC12.C/C(=N\Nc1ccccn1)C1CC[N-]C2C(O)CCCC12.[Cu+2] (stereo unspecified)                  %                  98.9
 8                         S=C=Nc1cccc(Cl)c1                  %                  80.3
 9  O=C(c1ccccc1)c1c(CC(O)c2ccncc2)n(C(=O)c2ccccc2)c2ccccc12 (stereo unspecified)                  %                  82.7
10  CCS(=O)(=O)[O][Sn]([CH2]C)([CH2]C)[O]S(=O)(=O)CC                  %                    67
11  COc1cc([C@@H]2c3cc4c(cc3C[C@@H]3COC(=O)C32)OCO4)cc(OC)c1O (stereo partly specified)                  %                  86.2

###

assay: NCI Yeast Anticancer Drug Screen. Data for the bub3 strain (AID 167); conditions: S. cerevisiae bub3 mutant strain, at 50.0 µM (retest, dose inferred, filed as 5.0), stronger effect = higher value
This is part of a sample that, as a whole, favours compounds with a hit. Of some 79,000 tested, about 15% had one in any assay.
result.type: growth inhibition (%)

> print(dat)
                                   compound  quantitative.readout
1  O=C1C(=O)c2ccccc2-c2ccccc21.O=C1C(=O)c2ccccc2-c2ccccc21.[Hg]                    96
2                     FC(F)(F)c1cccc(CCl)c1                     7
3  CCC[CH2][Sn]1([CH2]CCC)[O]CC(CN(C)Cc2ccccc2)[O]1 (stereo not given)                    -1
4       CC1C(=O)OCC1(C)O (stereo not given)                     2
5  C[C@@H]1CC[C@@]2(NC1)O[C@H]1C[C@H]3[C@@H]4CC[C@H]5C[C@@H](O)CC[C@]5(C)[C@H]4CC[C@]3(C)[C@H]1[C@@H]2C                    99

###

Assay: NCI Yeast Anticancer Drug Screen. Data for the mlh1 rad18 strain (AID 175)
Conditions: S. cerevisiae mlh1 rad18 strain growth inhibition; at 50.0 µM (retest, dose inferred, filed as 5.0); stronger effect = higher value
Protocol: Growth inhibition of yeast strains with defined genetic alterations is measured as a screen for potential anti-cancer activity. Selected strains with alterations in DNA damage repair or cell cycle control were exposed to compounds and growth inhibition was measured relative to vehicle treated controls. The strain used in this assay is mlh1 rad18
This is part of a sample that, as a whole, favours compounds with a hit. Of some 79,000 tested, about 15% had one in any assay.

molecule	measurement.units	growth inhibition
[Br][Ni][Br].c1ccc(CN2CCN(Cc3ccccc3)CCN(Cc3ccccc3)CCN(Cc3ccccc3)CC2)cc1	%	92
c1cc2c(c(NC3=NCCN3)c1)CCCC2	%	13
CC(=O)Oc1cccc2c1CC(C[Se]c1ccccc1)C(=O)O2 (stereo unspecified)	%	66
C[C@]12CCC(=O)C=C1CC[C@@H]1C2CC[C@@]2(C)C1CC[C@@H]2OC(=O)C12OC1CCC2=O (stereo partly specified)	%	92
CCCCCCCCCCCC(=O)[O][Hg][c]1ccccc1	%	99
CC(=O)Nc1cccc([As+](C)(c2cccc(NC(C)=O)c2)c2cccc(NC(C)=O)c2)c1	%	11
Clc1ccc2c(NCCCCN3OC3c3ccccc3)ccnc2c1 (stereo unspecified)	%	84
[Cl][Sn]([Cl])([c]1ccccc1)[c]1ccccc1.c1ccncc1.c1ccncc1	%	96
CCC[CH2][Sn]1([CH2]CCC)[O]C(=O)c2cccnc2[O]1	%	97
NP(N)(=O)Nc1ccccc1	%	0
CC1C(=O)OCC1(C)O (stereo unspecified)	%	3
CCC[CH2][Sn]1([CH2]CCC)[O]C(=O)C(C(C)C)N=Cc2ccccc2[O]1 (stereo unspecified)	%	-2
O=[N+]([O-])C(Br)CO (stereo unspecified)	%	97
NC1=C(c2nc(-c3ccccc3)cs2)C(c2ccc(Br)cc2)c2c(c3ccccc3oc2=O)O1 (stereo unspecified)	%	99
CC(C)=[CH][Sb]([Br])([CH]=C(C)C)([CH]=C(C)C)[c]1ccccc1	%	10
COc1cc([C@@H]2c3cc4c(cc3C[C@@H]3COC(=O)C32)OCO4)cc(OC)c1O (stereo partly specified)	%	68
CCOP(=O)(Oc1ccc([N+](=O)[O-])cc1)c1ccccc1C(C)C (stereo unspecified)	%	77
CCC[CH2][Sn]1([CH2]CCC)[O]CC[S]1	%	99
CC[N+](C)(CC)CCNC(=O)C(O)(c1ccccc1)c1ccccc1	%	40
CC(=O)OC(C)(C)/C=C/C(=O)[C@](C)(O)[C@H]1[C@H](O)C[C@@]2(C)[C@@H]3CC=C4[C@@H](C[C@H](O)[C@H](O)C4(C)C)[C@]3(C)C(=O)C[C@]12C	%	98
O=C(O)c1ccc(NP(=O)(O)Oc2ccccc2)cc1 (tested in a mixture with another compound)	%	16
